In this section we review reported koff values for a set of binders.
Biological target: T1, hOX40-his (human, UniProt P43489 29-216)
T1 construct: range 1-216; Made in HEK293; The stated range starts at residue 1 (holds the signal peptide of the entry); no cleavage site stated; not shown: his tag
T1 sequence (looked up): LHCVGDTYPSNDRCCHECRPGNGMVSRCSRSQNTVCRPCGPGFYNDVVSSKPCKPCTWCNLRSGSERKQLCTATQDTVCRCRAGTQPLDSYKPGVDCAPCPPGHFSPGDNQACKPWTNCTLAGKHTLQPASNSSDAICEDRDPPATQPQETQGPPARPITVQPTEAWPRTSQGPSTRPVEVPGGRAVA
Experiment: BIACORE, antibody on the probe, 20 nM OX40-his
The reply should be a number in s⁻¹, with the unit left off.

Below: 2 binders and their reported koff.
binder="VH + VGTD (antibody, human IgG1, kappa, V domains shown) VH: QVQLEESGGGVVQPGESLRLSCAASGFTFSSYGMHWVRQAPGKGLEWVAVISYDGSNQYYADSVKGRFTISRDNSKNTLYLQMNSLRAEDTAVYYCAKDNQDSSPDVGIDYWGQGTLVTVSS VL: DIQMTQSPSSLSASVGDTVTITCRASQNISPFLNWYQQKPGKAPKLLIYAAVGLQSGVPSRFSGSGSGTDFTLTISSLQPEDFATYYCQQYTDYPLTFGGGTKVEIKR" recorded_result=0.000243
binder="T + TD (antibody, human IgG1, kappa, V domains shown) VH: QVQLEESGGGVVQPGESLRLSCAASGFTFSSYGMHWVRQAPGKGLEWVAVISYDGSNQYYADSVKGRFTISRDNSKNTLYLQMNSLRAEDTAVYYCAKDNQDTSPDVGIDYWGQGTLVTVSS VL: DIQMTQSPSSLSASVGDTVTITCRASQNISPFLNWYQQKPGKAPKLLIYAASSLQSGVPSRFSGSGSGTDFTLTISSLQPEDFATYYCQQYTDYPLTFGGGTKVEIKR" recorded_result=0.00139

# input for lookup
# koff (binder: T + VGL + TD (antibody, human IgG1, kappa, V domains shown) VH: QVQLEESGGGVVQPGESLRLSCAASGFTFSSYGMHWVRQAPGKGLEWVAVISYDGSNQYYADSVKGRFTISRDNSKNTLYLQMNSLRAEDTAVYYCAKDNQDTSPDVGIDYWGQGTLVTVSS VL: DIQMTQSPSSLSASVGDTVTITCRASQNISPFLNWYQQKPGKAPKLLIYAAVGLQSGVPSRFSGSGSGTDFTLTISSLQPEDFATYYCQQYTDYPLTFGGGTKVEIKR ) is 0.000119
